assay.procedure: Tanguay_ZF_120hpf_YSE_legacy: (Legacy) Oregon State University Tanguay Lab 120 Hour Post-fertilization zebrafish Assay for Yolk Sac Edema (AID 2283634)
Results filed as inconclusive are left out. Activity calls are given as the source filed them. Rule for the calls: active = hit-call score of the fitted dose curve at least 0.9, where 1 is the maximum; inconclusive = response in the unintended direction; inactive = score below 0.9.
Just give me one of these, please: active, inactive

{"columns": ["molecule", "assigned.class"],
 "data": [
  ["Cc1ccc(N)cc1", "inactive"],
  ["CS(=O)(=O)NC(=O)c1cc(Oc2ccc(C(F)(F)F)cc2Cl)ccc1[N+](=O)[O-]", "inactive"],
  ["Oc1ccc2ccc3cccc4ccc1c2c34", "active"],
  ["CC(C)(C)C(O)(CCc1ccc(Cl)cc1)Cn1cncn1 (stereo unspecified)", "inactive"],
  ["[Cl-].[Cl-].[Hg+2]", "active"]
]}

Query: # fetch the recorded call for `Nc1ccc(Cl)cc1N` here
Result: inactive

Query: Ok, now `CCC[CH2][Sn]([Cl])([CH2]CCC)[CH2]CCC`
Result: inactive

Query: Record: `CCNS(=O)(=O)C(F)(F)C(F)(F)C(F)(F)C(F)(F)C(F)(F)C(F)(F)C(F)(F)C(F)(F)F`
Result: active

* * *

assay.procedure: CCTE_Shafer_MEA_acute_burst_percentage_mean: CCTE's Neural Acute Assay for Percentage of Spikes in a Burst, Shafer Lab (AID 2284017);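 note: curve fitted for loss of signal so potency reflects decreased burst percentage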
The source made the active and inactive calls. The calls were made as follows: active = hit-call score of the fitted dose curve at least 0.9, where 1 is the maximum; inactive = score below 0.9.
Entries and their AC50

Reference set (3 entries):
{"columns": ["mol", "AC50"],
 "data": [
  ["CCCCOC(=O)c1ccccc1C(=O)OCc1ccccc1", "6.09 µM (active)"],
  ["Cc1ccc(N)c(N)c1", "20 µM (active)"],
  ["CC(C)COC(=O)c1ccccc1C(=O)OCC(C)C", "9.02 µM (active)"]
]}

Now for the molecule whose AC50 we want.
Query: Need AC50 of `O=[N+]([O-])C(Br)(CO)CO` , thanks.
Result: 30.2 µM (active)

* * *

Read-out: Interleukin-1 alpha (IL1a), IL1A (gene 3552)
assay.procedure: BSK_KF3CT_IL1a: BioMAP Diversity Plus: KF3CT Assay for Interleukin-1 alpha (IL1a) Biomarker Activity (AID 2283070)
conditions: primary human keratinocytes with fibroblasts; actives raise or lower the signal
The source made the active and inactive calls. Rule for the calls: active = hit-call score of the fitted dose curve at least 0.9, where 1 is the maximum; inactive = score below 0.9.
Outcome field: choose from active, inactive

Example cases with answers are listed next.
{"columns": ["compound", "assigned.class"],
 "data": [
  ["CS(=O)(=O)NC(=O)c1cc(Oc2ccc(C(F)(F)F)cc2Cl)ccc1[N+](=O)[O-]", "inactive"],
  ["CC(C)(C)OOC(=O)c1ccccc1", "inactive"],
  ["O=C(O)C1C2CCC(O2)C1C(=O)O (configuration not stated)", "inactive"],
  ["CNC(=O)Oc1cccc2c1OC(C)(C)C2", "inactive"],
  ["C1=Cc2cccc3cccc1c23", "inactive"],
  ["ClC1=C(Cl)C2(Cl)C3C(Cl)C=CC3C1(Cl)C2(Cl)Cl (configuration not stated)", "active"],
  ["CN(C)[C@@H]1C(=O)C(C(N)=O)=C(O)[C@@]2(O)C(=O)C3=C(O)c4c(O)cccc4[C@@](C)(O)[C@H]3C[C@@H]12", "inactive"],
  ["CN(C)C(=O)Nc1ccc(Cl)cc1", "inactive"]
]}

Shift focus to the following entry.
Query: What did the test return for `COC(=O)Nc1nc2ccccc2[nH]1` ?
Result: inactive

* * *

Read-out: ABC Transporter (ABCB1), ABCB1 (gene 5243)
assay.procedure: LTEA_HepaRG_ABCB1: Life Technologies and Expression Analysis (LTEA) Assay for ABC Transporter (ABCB1) using HepaRG (AID 2283460)
conditions: mRNA level, 48 h; actives raise or lower the signal
Calls of active or inactive are those of the source. Rule for the calls: active = hit-call score of the fitted dose curve at least 0.9, where 1 is the maximum; inactive = score below 0.9.
Give one outcome, nothing more. List: active, inactive

Consider the following illustrative entries.
{"columns": ["molecule", "assigned.class"],
 "data": [
  ["CCC12COCN1COC2", "inactive"],
  ["ClCCOCCCl", "inactive"],
  ["Nc1cc(Cl)cc(C(=O)O)c1Cl", "inactive"],
  ["OCCOCCO", "inactive"]
]}

Query: So what was the verdict on `c1ccc2c(c1)oc1ccccc12` in this test?
Result: inactive

Query: What about `CCNS(=O)(=O)C(F)(F)C(F)(F)C(F)(F)C(F)(F)C(F)(F)C(F)(F)C(F)(F)C(F)(F)F` ?
Result: inactive

Query: What would you report for `c1ccc2c(c1)-c1cccc3cccc-2c13` ?
Result: inactive

Query: # repeat for `CS(=O)(=O)NC(=O)c1cc(Oc2ccc(C(F)(F)F)cc2Cl)ccc1[N+](=O)[O-]`
Result: active

Query: Request: `N#CC(Br)(Br)C(N)=O`
Result: inactive

* * *

Read-out: Apoptosis regulator Bcl-2 (Homo sapiens)
assay.procedure: LTEA_HepaRG_BCL2: Life Technologies and Expression Analysis (LTEA) Assay for Bcl-2 gene using HepaRG (AID 2283475);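 note: BCL2 transcript by TaqMan qRT-PCR normalised to ACTB GAPDH and POLR2A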
conditions: mRNA level, 48 h; actives raise or lower the signal
Calls of active or inactive are those of the source. Rule for the calls: active = hit-call score of the fitted dose curve at least 0.9, where 1 is the maximum; inactive = score below 0.9.
Hi! Could you answer with just one of these? yes (active), no (inactive)

Recorded results for 5 molecules are shown here.
{"columns": ["molecule", "assigned.class"],
 "data": [
  ["Cc1cc(N=Nc2ccccc2C)ccc1N", "yes"],
  ["COc1cc(C=O)cc2c1[C@H](COC(N)=O)[C@]1(OC(C)=O)ON2C[C@H]2[C@@H]1N2C(C)=O", "no"],
  ["CCCCC(CC)COC(=O)c1ccc(C(=O)OCC(CC)CCCC)c(C(=O)OCC(CC)CCCC)c1 (stereo not given)", "no"],
  ["CN(C)c1ccccc1", "no"],
  ["CCC[CH2][Sn]([Cl])([CH2]CCC)[CH2]CCC", "yes"]
]}

Query: Test call for this molecule, please: `CCN(CC)N=O`
Result: no

Query: // repeat for CCCCCCCCCCCCCN1CC(C)OC(C)C1 (stereo not given) and report
Result: no

* * *

Read-out: Cytochrome P450 2C19 (Homo sapiens)
assay.procedure: LTEA_HepaRG_CYP2C19: Life Technologies and Expression Analysis (LTEA) Assay for CYP2C19 using HepaRG (AID 2283482)
conditions: mRNA level, 48 h; actives raise or lower the signal
Activity calls are given as the source filed them. How the source made its calls: active means hit-call score of the fitted dose curve at least 0.9, where 1 is the maximum; inactive means score below 0.9.
Permitted responses: yes = active, no = inactive

{"columns": ["molecule", "assigned.class"],
 "data": [
  ["CCCCC(CC)COC(=O)c1ccc(C(=O)OCC(CC)CCCC)c(C(=O)OCC(CC)CCCC)c1 (stereo not drawn)", "no"],
  ["CCN(CC)CCO", "no"],
  ["CC(C)(C)OOC(C)(C)CCC(C)(C)OOC(C)(C)C", "no"],
  ["Cc1ccc(N)cc1", "no"],
  ["O=C1CCCO1", "no"],
  ["CC(C)(OOC(C)(C)c1ccccc1)c1ccccc1", "yes"],
  ["CCC(C)c1ccc(O)cc1 (stereo not drawn)", "no"],
  ["CC(O)CCO (stereo not drawn)", "no"]
]}

Query: Name the outcome recorded for `C=CCc1ccc2c(c1)OCO2` in the assay.
Result: no

Query: // next record `COP(=S)(OC)SCN1C(=O)c2ccccc2C1=O`
Result: no

Query: Query `CC(C)COC(=O)c1ccccc1C(=O)OCC(C)C` next
Result: no

Query: // same read-out, input: `Clc1ccc(C(c2ccc(Cl)cc2)C(Cl)(Cl)Cl)cc1`
Result: yes

Query: Next up: `OCCCl`
Result: no

Query: Proceed to `CN(C)c1ccc(C(=O)c2ccc(N(C)C)cc2)cc1`
Result: no

Query: Same lookup for `COC(=O)c1ccccc1N` , please.
Result: no

Query: Same for `N#CC(Br)(Br)C(N)=O`
Result: no

Query: Then what about the molecule `CCNS(=O)(=O)C(F)(F)C(F)(F)C(F)(F)C(F)(F)C(F)(F)C(F)(F)C(F)(F)C(F)(F)F` ?
Result: no

* * *

assay.procedure: Tanguay_ZF_120hpf_OTIC_legacy: (Legacy) Oregon State University Tanguay Lab 120 Hour Post-fertilization zebrafish Assay for Otic Vesicle Malformation (AID 2283639)
Results filed as inconclusive are left out. The source made the active and inactive calls. Rule for the calls: active = hit-call score of the fitted dose curve at least 0.9, where 1 is the maximum; inconclusive = response in the unintended direction; inactive = score below 0.9.
// allowed return values: 1.0 = active, 0.0 = inactive

{"columns": ["compound", "assigned.class"],
 "data": [
  ["Nc1ccc(Cl)cc1N", 0.0],
  ["c1ccc(C2CO2)cc1 (stereo not given)", 0.0],
  ["Clc1ccc(C(c2ccc(Cl)cc2)C(Cl)(Cl)Cl)cc1", 0.0],
  ["COC(=O)c1ccccc1N", 0.0],
  ["OCCCBr", 0.0],
  ["Cc1ccc(N)c(N)c1", 0.0],
  ["CCCCC(CC)COC(=O)c1ccc(C(=O)OCC(CC)CCCC)c(C(=O)OCC(CC)CCCC)c1 (stereo not given)", 0.0],
  ["COP(=S)(OC)SCN1C(=O)c2ccccc2C1=O", 0.0],
  ["Brc1ccc(Oc2ccccc2)cc1", 0.0],
  ["N#CC(Br)Br", 0.0]
]}

Query: Please state the recorded outcome for this compound: `Oc1ccc2ccc3cccc4ccc1c2c34`
Result: 1.0

Query: Now give it for `Nc1ccc(N=Nc2ccccc2)cc1` too.
Result: 0.0

Query: And then `CCN(CC)N=O` , what is it?
Result: 0.0

The measurements presented in this section are drawn from PubChem BioAssay (EPA / NIEHS).
